Value source: the supplement of paper PMC7125110

B1: glmS ribozyme (parent)
chain: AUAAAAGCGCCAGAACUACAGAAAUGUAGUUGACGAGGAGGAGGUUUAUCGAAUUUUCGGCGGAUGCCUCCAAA

- Variants of: B1
- ASSAY PROCEDURE: self-cleavage kobs at 10000 uM GlcN6P; higher = faster cleavage; RNA array
- MEASUREMENT SETUP: with glucosamine-6-phosphate
Variants at the floor of the assay were thinned out.
RECORDED ENDPOINT: self-cleavage kobs at 10000 uM GlcN6P (s⁻¹)
Answers are plain numbers, in s⁻¹.

Need self-cleavage kobs at 10000 uM GlcN6P, item A15U G44A 2.88e-05

Input U54A G66U 0.00174

Consider next the variant G32U U47A in the same way. 0.000493

Repeat for the following variant: A42G C67G 0.0123

Quick one: A39G U49G 0.000904

Field: self-cleavage kobs at 10000 uM GlcN6P. Fill in for each record below.
1. G37A A42U
2. C10G A14G

[0.000669, "3.42e-05"]

Fill in self-cleavage kobs at 10000 uM GlcN6P for each of the 2 variants listed.
1. U65G G66U C70A
2. A14C G32A

1. 6.2e-05
2. 0.00702
